- Experiment Summary: recombinant barcode read abundance after kanamycin selection (control-corrected) (log10(CPM+1)); higher = more efficient recombination; sequences stand for … in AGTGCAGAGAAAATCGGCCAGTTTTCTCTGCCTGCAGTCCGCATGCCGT…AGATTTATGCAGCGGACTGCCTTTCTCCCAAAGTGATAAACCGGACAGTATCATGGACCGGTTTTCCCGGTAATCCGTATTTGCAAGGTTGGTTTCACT; site = the 11-nt target
# recombinant barcode read abundance (log10) per entry
Readout Label: recombinant barcode read abundance (log10)

* TTGGGGTCTTGGGTTCTAACCTGTTGCCT (site GTAGGGTCTAG) | 0.155
* CGAGGGTCTTGGGTTCTAACCTGTTGCCT (site CGAGGGACTAG) | 0.0535
* TCCTGGGCTTGGGTTCTAACCTGTTGCCG (site TCCTGGGCTCG) | 0.0509
* CTAGTCCCTTGGGTTCTAACCTGTTGCCG (site TTAGTCCCTCG) | 0.176
* AGTAAGTCTTGGGTTCTAACCTGTTGCCT (site AATAAGTCTAG) | 0.0805
* GGGCCTGCTTGGGTTCTAACCTGTTGCCT (site GGGCCTGCTAG) | 2.1
* CCTAAGACTTGGGTTCTAACCTGTTGCCG (site CCTAAGACTGG) | 0.148
* GCAATGACTTGGGTTCTAACCTGTTGCCT (site GGAATGACTAG) | 0.105
* TCACGTCCTTGGGTTCTAACCTGTTGCAT (site TCACGTCCTAC) | 0.187
* CTAGGCCCTTGGGTTCTAACCTGTTGCTT (site CTAGGCCCTAA) | 0.563
* ACGGCGCCTTGGGTTCTAACCTGTTGCCT (site ACGGCGCCTAG) | 1.12
* AGCGCTCCTTGGGTTCTAACCTGTTGCGT (site AGCCCTCCTAT) | 0.532
* CACAATACTTGGGTTCTAACCTGTTGCCT (site GCATGACCTCT) | 0.00751
* TCGTATACTTGGGTTCTAACCTGTTGCGG (site TAGTATACTCA) | 0.193
* CGCCCTCCTTGGGTTCTAACCTGTTGCAT (site CGCCCTCCTAT) | 0.362
* AGGTCACCTTGGGTTCTAACCTGTTGCAT (site AGGTCACCTAG) | 0.128
* ATGCAAACTTGGGTTCTAACCTGTTGCCT (site ATGCAATCTAG) | 0.151
* ATAAGCCCTTGGGTTCTAACCTGTTGCCT (site ACAAGCCCTAG) | 0.212
* GTATGCTCTTGGGTTCTAACCTGTTGCGT (site GTATCCTCTAT) | 0.11
* CCGCGTGCTTGGGTTCTAACCTGTTGCCT (site CCGCGTGCTAG) | 0.0933
* TGGTATGCTTGGGTTCTAACCTGTTGCCT (site TGGTATACTAG) | 0.5
* CGTGAAGCTTGGGTTCTAACCTGTTGCCT (site CGTGAAGCTAG) | 0.795
* GACACAACTTGGGTTCTAACCTGTTGCCA (site CGGCTCCCTAA) | 0.208
* TAATTGCCTTGGGTTCTAACCTGTTGCCT (site TAATTGCCTAG) | 0.645

* * *

- Experiment Summary: recombinant UMI read abundance after kanamycin selection (control-corrected) (log10(CPM+1)); higher = more efficient recombination; extreme values may be limits of the assay; sequences stand for … in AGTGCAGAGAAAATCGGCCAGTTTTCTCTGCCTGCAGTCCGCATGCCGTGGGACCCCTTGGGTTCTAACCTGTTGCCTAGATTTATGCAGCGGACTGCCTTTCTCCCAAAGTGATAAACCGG…AGGTTGGTTTCACT; site = the 11-nt donor
# recombinant UMI read abundance (log10) per entry
Readout Label: recombinant UMI read abundance (log10)

* ACGACTACATGGACCGGTTTTCCCGGTAATCCGTATTTGAC (site ACGACTACTGT) | 2.45
* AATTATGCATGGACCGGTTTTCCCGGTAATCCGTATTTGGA (site AATTATCCTTC) | 0.447
* CCTAATACATGGACCGGTTTTCCCGGTAATCCGTATTTGTC (site CCTAATACTGT) | 0
* ATAAGGTCATGGACCGGTTTTCCCGGTAATCCGTATTTGAC (site ATAAGGTCTGT) | 3.4
* TGAGGCACATGGACCGGTTTTCCCGGTAATCCGTATTTGGT (site TGAGGCACTAC) | 0.463
* TCCAATTCATGGACCGGTTTTCCCGGTAATCCGTATTTGCG (site TCCAATTCTTG) | 0
* GGACTTCCATGGACCGGTTTTCCCGGTAATCCGTATTTGAA (site GGACTTCCTTT) | 1.42
* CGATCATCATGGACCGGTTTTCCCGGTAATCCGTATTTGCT (site GGAACATCTAG) | 0.00516
* CAGAATACATGGACCGGTTTTCCCGGTAATCCGTATTTGTT (site CGGAATCCTAA) | 0
* TCATATTCATGGACCGGTTTTCCCGGTAATCCGTATTTGCA (site TCATACTCTTG) | 1.3

* * *

- Experiment Summary: recombinant UMI read abundance after kanamycin selection (control-corrected) (log10(CPM+1)); higher = more efficient recombination; extreme values may be limits of the assay; sequences stand for … in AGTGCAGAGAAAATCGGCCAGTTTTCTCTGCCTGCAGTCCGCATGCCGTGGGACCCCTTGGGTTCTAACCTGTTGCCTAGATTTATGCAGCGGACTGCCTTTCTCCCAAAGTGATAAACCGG…AGGTTGGTTTCACT; site = the 11-nt donor
I would appreciate it if you labelled entries t when recombinant UMI read abundance (log10) is 2 or higher, otherwise f.

- GAATGGGCATGGACCGGTTTTCCCGGTAATCCGTATTTGCA (site GAATGGCCTTG): f
- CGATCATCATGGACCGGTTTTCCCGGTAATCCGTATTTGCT (site CAAACATCTAG): f
- GAAGTCGCATGGACCGGTTTTCCCGGTAATCCGTATTTGCG (site GCAGTCGCTCG): f
- ACAGTATCATGGACCGGTTTTCCCGGTAATCCGTATTTGTG (site ACAGTATCTCA): t
- TCCTCCGCATGGACCGGTTTTCCCGGTAATCCGTATTTGCG (site TCCCCCGCTCG): f

* * *

- Experiment Summary: recombinant UMI read abundance after kanamycin selection (control-corrected) (log10(CPM+1)); higher = more efficient recombination; extreme values may be limits of the assay; sequences stand for … in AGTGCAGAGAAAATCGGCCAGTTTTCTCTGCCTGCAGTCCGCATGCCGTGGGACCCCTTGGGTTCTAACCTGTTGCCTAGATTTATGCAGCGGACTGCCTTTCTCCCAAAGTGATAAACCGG…AGGTTGGTTTCACT; site = the 11-nt donor
I would appreciate it if you labelled entries t when recombinant UMI read abundance (log10) is 0.2 or higher, otherwise f.

• AGCCTAGCATGGACCGGTTTTCCCGGTAATCCGTATTTGTG (site AGCCTAGCTAA) = f
• GCTAAAGCATGGACCGGTTTTCCCGGTAATCCGTATTTGAT (site ACTAAAGCTAT) = t
• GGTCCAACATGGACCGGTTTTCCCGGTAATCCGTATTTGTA (site GGTACAACTTA) = f
• CTGTGCCCATGGACCGGTTTTCCCGGTAATCCGTATTTGCC (site CTGTGCCCTGG) = t
• CACTTCCCATGGACCGGTTTTCCCGGTAATCCGTATTTGCT (site CAGTTCCCTAG) = t
• CCTATTTCATGGACCGGTTTTCCCGGTAATCCGTATTTGAA (site CCTATTTCTTT) = f
• AGGAATACATGGACCGGTTTTCCCGGTAATCCGTATTTGAC (site AGGATTACTGT) = f
• ACTGTAACATGGACCGGTTTTCCCGGTAATCCGTATTTGCT (site ACTGTAACTAG) = t
• TGTTAGACATGGACCGGTTTTCCCGGTAATCCGTATTTGAG (site TGTTAGACTCT) = t

* * *

# recombinant UMI read abundance (log10) per entry
- Experiment Summary: recombinant UMI read abundance after kanamycin selection (control-corrected) (log10(CPM+1)); higher = more efficient recombination; extreme values may be limits of the assay; sequences stand for … in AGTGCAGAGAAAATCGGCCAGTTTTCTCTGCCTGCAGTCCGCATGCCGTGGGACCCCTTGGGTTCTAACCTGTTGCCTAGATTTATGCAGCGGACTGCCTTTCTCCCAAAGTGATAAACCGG…AGGTTGGTTTCACT; site = the 11-nt donor
Readout Label: recombinant UMI read abundance (log10)

* CTAATAACATGGACCGGTTTTCCCGGTAATCCGTATTTGAC (site CTAATAACTGT) | 2.34
* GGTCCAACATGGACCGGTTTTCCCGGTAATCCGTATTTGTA (site GGTCCAACTGA) | 0
* CTTAGAACATGGACCGGTTTTCCCGGTAATCCGTATTTGGC (site ATTAGAACTGC) | 0
* AATGTACCATGGACCGGTTTTCCCGGTAATCCGTATTTGCT (site AATGTACCTAG) | 0
* ACAGAAACATGGACCGGTTTTCCCGGTAATCCGTATTTGCA (site ACAGTATCTTG) | 0
* CCGAAAGCATGGACCGGTTTTCCCGGTAATCCGTATTTGAT (site CCCAAAGCTAT) | 0
* TGCCACCCATGGACCGGTTTTCCCGGTAATCCGTATTTGTT (site GGCCACCCTAA) | 0.00763
* CCCATATCATGGACCGGTTTTCCCGGTAATCCGTATTTGCC (site CCCATATCTGG) | 0.328
* AGGCAGACATGGACCGGTTTTCCCGGTAATCCGTATTTGGA (site AGGAAGACTTG) | 0
* AGTTTCCCATGGACCGGTTTTCCCGGTAATCCGTATTTGTG (site AGATTCCCTCA) | 0.0216
* TAGGGATCATGGACCGGTTTTCCCGGTAATCCGTATTTGCT (site TAGGGATCTAG) | 2.31

Measured values drawn from the supplement of paper PMC11208160 for this set.
